- test details: soluble on expression in E. coli; label from the status in PepcDB or PDB records
readout: soluble on expression in E. coli

# item sequence, result
records = [
    ("ERFAREPMAAGHRMWQMAGLKAQRAQTDVNNKKAAFDAAAKEKSDADVALSSALERRKQKENKEKDAKAKLDKESKRNKPGKATGKGKPVNNKWLNNAGKDLGSPVPDRIANKLRDKEFKSFDDFRKKFWEEVSKDPELSKQFSRNNNDRMKVGKAPKTRTQDVSGKRTSFELHHEKPISQNGGVYDMDNISVVTPKRHIDIHRGK", "soluble"),
    ("MGHHHHHHSHCDKCEGRGGKKGAVECCPNCRGTGMQIRIHQIGPGMVQQIQSVCMECQGHGERISPKDRCKSCNGR", "soluble"),
    ("MPPKTSEVARKLERLGFKPLPRRGKGGHRVYVHPDGRKVVLPLHSGEIPWGLFKTVLKQAGITEEEFRRA", "soluble"),
]

---

- test details: soluble on expression in E. coli; label from the status in PepcDB or PDB records
readout: soluble on expression in E. coli

# item sequence, result
measured = [
    ("MSDTANTAVEVDEQVIEKKLDDLSIGKKRSPSKDDTSKHRLPAAERIRIWEEEQKAKIVLTAGLQGKVKWYSVLRRYGFISRSDGEKDVFVHQTAISKSDTEKFYLRTLADEEEVLFDLVDGKNGPEAANVTGPAGVNVSGSKYRHQLLSRFRKNRKPKIVVGEDFDSKETEKLVEAPAVAMEKKKQRKQRKNKNRKQKDQKGAGDAADSSATTESLGTSSETASPDSKSCTKIISEEAGLSKIDRCDSALDDAGLGAQLIDAQI", "soluble"),
    ("MARKLIDISVPLQNDVPADPPGNHPTIQYIDHQQGLPRMLQFFPGLKAEDLPDGQGWAVEQVSLSTHNGTHLDAPWHFHPTMNRGERALTIDEVPLDWCLQPGVKLDFRHLPDGYVVTAKDVENELERIGHTLAPLEIVVVNTSAGAKFGRPDYVNSGCGVGYEATMYLLERGVRLTGTDAWSWDAPFVFTAQRYAETKDASLIWEGHKASRHIGYCHLEKLHNLELLPATGFMVSCFPVKIERASAGWTRAVAILNDAAALEHHHHHH", "soluble"),
]

---

- test details: soluble on expression in E. coli; label from the status in PepcDB or PDB records
readout: soluble on expression in E. coli

# item sequence, result
measured = [
    ("NKLAQKYDHQREQELREWIEGVTGRRIGNNFMDGLKDGIILCEFINKLQPGSVKKINESTQNWHQLENIGNFIKAITKYGVKPHDIFEANDLFENTNHTQVQSTLLALASMAKTKGNKVNVGV", "soluble"),
    ("MAHHHHHHSLSFSCPLCHQPLSREKNSYICPQRHQFDMAKEGYVNLLPVQHKRSRDPGDSAEMMQARRAFLDAGHYQPLRDAIVAQLRERLDDKATAVLDIGCGEGYYTHAFADALPEITTFGLDVSKVAIKAAAKRYPQVTFCVASSHRLPFSDTSMDAIIRIYAPCKAEELARVVKPGGWVITATPGPRHLMELKGLIYNEVHLHAPHAEQLEGFTLQQSAELCYPMRLRGDEAVALLQMTPFAWRAKPEVWQTLAAKEVFDCQTDFNIHLWQRSYEG", "soluble"),
]

---

- test details: soluble on expression in E. coli; label from the status in PepcDB or PDB records

# item sequence, soluble on expression in E. coli
rows = [
    ("MKKMFLILASAVVSLTACSKDSGDDDSPPIEKQPFNAVIKDGFKDENGVDLLPPRNIGNIKVGDYIPYNVTITDEVAEQEGETYRVVASTYDEGTHQERSVSYDIYLADKEDPTKMVLLENPEQLTFNKRGTYSFFIYPKEAGTYNLRFLLEKSVNNQKIGTSAIPIVTFNAVRITAYSHGYFTGKWKWEWSDSFIPILEEHSVNRRKFFFKIDDGSTEKDKYLQPEKAGIFYFTEYNGDNRGPLSFTVGAEYEYYPEQERTRAIQYLIFLLLK", "not soluble"),
    ("MAEEAVDARGEGARFIEKVKSICGNTSRILYKYDEPTDPRYGYLPHERPLDVYLRYGMIVVDKPPGPTSHEVVAWIKRMLGVSRAGHGGTLEPLPAPRGLRGGDILK", "soluble"),
    ("MSLETLRIANRMLGYAAYEWRLSSLDGQKVMSSSGICLEVDTCLADERRYVSGENRPEMAIICSGIDVDQHVNKSVNAWLREAYNRGIAIGSLCTAAHILAQAGLLNGKRCAIHWENLPGFSEAFPQVEVYADLFEVDSNIYTCAGGTASLDMMLSLIGQDFGENLVNRVCEQQLTDRVREGHHHHHH", "not soluble"),
    ("NELSQERTARLNELQRALVMMDSDFRQIALRQTRTNGEEPSKKLLHWADYLLDSDNKGIMFARLGWHNPQQQFPRGEVTKVGYRIKDERLERVWWRYPDTPAGQEGVVTPLLSDVEELNVRFYDGKQWINEWSNELTLPAAISVELTLKDYGKIARTYLTPEGN", "soluble"),
    ("MGHHHHHHSHMTSGPGGRSAAAGGRKENHQWYVCNREKLCESLQAVFVQSYLDQGTQIFLNNSIEKSGWLFIQLYHSFVSSVFSLFMSRTSINGLLGRGSMFVFSPDQFQRLLKINPDWKTHRLLDLGAGDGEVTKIMSPHFEEIYATELSETMIWQLQKKKYRVLGINEWQNTGFQYDVISCLNLLDRCDQPLTLLKDIRSVLEPTRGRVILALVLPFHPYVENGGKWEKPSEILEIKGQNWEEQVNSLPEVFRKAGFVIEAFTRLPYLCEGDMYNDYYVLDDAVFVLKPV", "not soluble"),
    ("MSEFLTHPFEPFFDKDSKILILGSFPSIKSRQDGFYYQHPRNRFWPILETLFNAKLENITEQQAFLRKKHIALWDVLQSCKIKNSDDKTISYAKANDLNLILSQTKIQAIFTTGQSAYRFFVKFHPRLEAIALPSTSPANLNFSFEQLLQNYEIIKKFTKLEHHHHHH", "soluble"),
    ("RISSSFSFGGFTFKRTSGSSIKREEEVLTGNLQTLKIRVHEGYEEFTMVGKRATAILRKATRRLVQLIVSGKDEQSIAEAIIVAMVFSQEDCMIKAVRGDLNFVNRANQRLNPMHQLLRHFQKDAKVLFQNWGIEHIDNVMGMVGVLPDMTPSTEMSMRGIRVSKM", "soluble"),
    ("MGSDKIHHHHHHLVGSGGTGAPPPRSSPMTTLYVTQPGSVVRSEGGSLTVWVETEADDPGPNDSPVRRKRLASVEPHRLESLVLLGFTTITANAMRLCMANKIAVSLLDGGGGLAARVVPPEARSADLRLHQYALHLDPPERLIRARAVVTAKLRNAAAVLRGIRSNQASSAALASAITQTEASAEAAAAAVSAESLLGIEGNGAHQYFAGLRTAFVGGIPFLGRAQRPPPDPANSLLSFGYVLLGNRLTGLLEARGVDPCLGFFHDLRPGRPSLALDLLEELRHPVVDRLALRICNLRKIQPQHFEPDAERPGGVKLTVDGRKIFLEEWEGHLARPLREPGVAAEHRLDVHRLLQRQVDRLVSDLRGGEPYRPFRFGTSRPG", "not soluble"),
    ("MVTVPDAIKGSSPTPQQDLVRVMSAPQLYVGQEARFGGKVVAVQNQQGKTRLEIATVPLDSGARPTLGEPSRGRIYADVNGFLDPVDFRGQLVTVVGPITGAVDGKIGNTPYKFMVMQVTGYKRWHLTQQVIMPPQPIDPWFYGGRGWPYGYGGWGWYNPGPARVQTVVTELEHHHHHH", "soluble"),
    ("MKLAAKTFTPSTADLPFTDAGASEDSGMANKPGEPAFQLWLDVKKVVFPTTSEPSYVNLRLHNPTDKRITFKVRCTSAELFRVQPPIAFINAGATVNLVMWSANTHLQPEKKHYFAFYHKNASPSARQSPPLWKDGLKDAEGVRRIPVVFLPPSS", "not soluble"),
    ("DKIAIIGSRRMSVYTKNCVFSLASMLKNAHLCVVSGGALGVDITASMAAMPNTIGIFANGLDQIYPRTNEKIIKQIYENALALSEYEDDYLPKNYDFLLRNRLVIALSKAVVVAQADIKSGSMQSAKLALELNKPLYVLPQRLGESTATNLLLKENKAKLICDFKEFVSEFASID", "not soluble"),
    ("MTAPFFPRILGAVAFLNQETEPLTMNLQHHFLIAMPALQDPIFRRSVVYICEHNTNGAMGIIVNKPLENLKIEGILEKLKITPEPRDESIRLDKPVMLGGPLAEDRGFILHTPPSNFASSIRISDNTVMTTSRDVLETLGTDKQPSDVLVALGYASWEKGQLEQEILDNAWLTAPADLNILFKTPIADRWREAAKLIGVDILTMPGVAGHALEHHHHHH", "not soluble"),
    ("SGPMDSRALRQGNRLLGNAEGCAALEITMSGPLLRFNTDAVIAVTGAHIPITLDGESCAMNTALLVRAGSTLALGTIAGAGVRSYLCVRGGLDVPDYLGSKSTFTLGQFGGHGGRALRAGDVLHIARLVDRTAGQKIADEQLDALQDVRQIRVIYGPHAAPEYFTESYIETFFATDWEVHFNSSRTGVRLIGPKPEWVRADGGEAGLHPSNIHDNPYAIGAVDFTGDMPVILGPDGPSLGGFVCPVTIIEADLWQLGQLKAGDKVRFYPVSVEACHAAMNSQGPLPQGPLNTSGSGL", "not soluble"),
]

Data provenance: the DeepSol protein solubility set
